- testedSystem: human AR (Homo sapiens)
- protocolDescription: Co-transfection assay, AR antagonist activity (CV-1 cells, in presence of DHT)
- Type: cell-based
- protocolConditions: CV-1 cells; percent maximal inhibition, DHT at its EC50
Note to self: values exactly at 80% are Criterion met. So AR Antagonist CV-1 Cells Efficacy (%) at or above 80% is Criterion met, below is Criterion not met.

Use the examples below as a reference point.
compound	testedSystem	assignedClass
CC1OC(=O)Nc2ccc(C3=CCCCC3)cc21 (racemic)	human AR (Homo sapiens)	Criterion met
O=c1cc(C(F)(F)F)c2cc(-c3ccc(Cl)cc3Cl)ccc2[nH]1	human AR (Homo sapiens)	Criterion not met

Item `Cc1cccc(-c2ccc3[nH]c(=O)cc(C(F)(F)F)c3c2)c1` with AR Antagonist CV-1 Cells Efficacy (%) of 80% or above? Criterion met

Next compound up: CC(C)CN(c1ccc2[nH]c(=O)cc(C(F)(F)F)c2c1)C(C)C(F)(F)F (racemic) Criterion not met

Next compound up: `O=c1cc(C(F)(F)F)c2cc(C3=CCCCCC3)ccc2[nH]1` Criterion not met

Next compound up: `CCC(CC)c1ccc2[nH]c(=O)cc(C(F)(F)F)c2c1` Criterion not met

Next compound up: `O=c1cc(C(F)(F)F)c2cc(-c3ccccc3)ccc2[nH]1` Criterion met

Next compound up: `CC1(C)OC(=O)Nc2ccc(C3=CCCCC3)cc21` Criterion met

---

- testedSystem: human AR (Homo sapiens)
- protocolDescription: Co-transfection assay, AR agonist activity (CV-1 cells, MTV-LUC reporter)
- protocolConditions: CV-1 cells; agonist potency EC50
assayEndpoint: EC50

GET /values?readout=EC50&item= CC1CCCCN1c1ccc2[nH]c(=O)cc(C(F)(F)F)c2c1 (racemic) 0.0053 µM

Next compound up: `O=c1cc(C(F)(F)F)c2cc(N(Cc3ccccc3)Cc3ccccc3)ccc2[nH]1` > 10 µM

Next compound up: `Nc1cc2[nH]c(=O)cc(C(F)(F)F)c2cc1OCC(F)(F)F` > 10 µM

Next compound up: `Cn1c(=O)cc(C(F)(F)F)c2ccc(NCC(F)(F)F)cc21` > 10 µM

Next compound up: `O=c1[nH]c2cc(NC3CCCC3)ccc2c(C(F)(F)F)c1F` > 10 µM

---

- testedSystem: PR (Homo sapiens, UniProt P06401)
- Sequence (P06401 whole entry): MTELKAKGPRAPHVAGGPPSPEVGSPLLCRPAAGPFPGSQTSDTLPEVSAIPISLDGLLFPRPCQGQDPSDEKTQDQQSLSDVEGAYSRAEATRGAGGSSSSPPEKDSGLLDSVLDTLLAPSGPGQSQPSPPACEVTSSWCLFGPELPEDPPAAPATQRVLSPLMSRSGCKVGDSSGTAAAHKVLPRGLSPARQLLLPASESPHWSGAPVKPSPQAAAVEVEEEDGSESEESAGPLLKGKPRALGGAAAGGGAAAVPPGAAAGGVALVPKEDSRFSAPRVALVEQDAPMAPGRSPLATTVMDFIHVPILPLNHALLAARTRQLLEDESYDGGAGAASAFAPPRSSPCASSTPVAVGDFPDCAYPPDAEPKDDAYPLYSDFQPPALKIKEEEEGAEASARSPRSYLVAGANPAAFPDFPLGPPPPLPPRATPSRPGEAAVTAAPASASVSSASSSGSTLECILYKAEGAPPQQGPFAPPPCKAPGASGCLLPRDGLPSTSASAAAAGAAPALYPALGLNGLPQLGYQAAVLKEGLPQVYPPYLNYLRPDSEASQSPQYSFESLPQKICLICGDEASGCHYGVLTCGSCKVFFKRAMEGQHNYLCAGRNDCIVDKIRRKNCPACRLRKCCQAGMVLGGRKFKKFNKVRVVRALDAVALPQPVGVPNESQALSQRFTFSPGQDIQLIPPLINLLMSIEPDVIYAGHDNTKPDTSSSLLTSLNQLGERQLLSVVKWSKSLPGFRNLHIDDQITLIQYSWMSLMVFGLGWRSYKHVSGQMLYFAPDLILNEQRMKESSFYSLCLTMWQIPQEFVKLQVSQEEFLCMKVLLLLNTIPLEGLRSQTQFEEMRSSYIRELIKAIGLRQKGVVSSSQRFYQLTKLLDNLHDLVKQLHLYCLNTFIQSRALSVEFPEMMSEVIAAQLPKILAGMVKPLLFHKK
- protocolDescription: Co-transfection assay, PR antagonist activity (CV-1 cells, in presence of progesterone)
- Assay type: cell-based
- Design: expressed in transfected cells; host or cells: CV-1 cells
Parameter IC50: see the listing below.
Use nM as the unit, but write only the number.

Reference set, count: 2
molecule	IC50 / nM
CC(C)CN(CC(F)(F)F)c1cc2c(C(F)(F)F)cc(=O)[nH]c2cc1O	880
CCCC(C)N(CCC)c1ccc2[nH]c(=O)cc(C(F)(F)F)c2c1 (racemic)	747

Identify the measured IC50 of `CCN(CC(C)(C)C)c1ccc2[nH]c(=O)cc(C(F)(F)F)c2c1` for PR (Homo sapiens, UniProt P06401). 200

Next molecule up: `O=c1cc(C(F)(F)F)c2cc(-c3cccc([N+](=O)[O-])c3)ccc2[nH]1` 108

---

- testedSystem: PR (Homo sapiens, UniProt P06401)
- protocolDescription: Co-transfection assay, PR antagonist activity (CV-1 cells, in presence of progesterone)
- Assay type: cell-based
- Set-up: expressed in transfected cells; host or cells: CV-1 cells
- protocolConditions: CV-1 cells; percent maximal inhibition, progesterone at its EC50
assayEndpoint: PR Antagonist CV-1 Cells Efficacy (%)
Use % as the unit, but write only the number.

molecule	testedSystem	valueReported
CCCC(C)N(CCC)c1ccc2[nH]c(=O)cc(C(F)(F)F)c2c1 (racemic) [Compound 251]	PR (Homo sapiens, UniProt P06401)	91
FC(F)(F)c1cc(=S)[nH]c2ccc(C3CCCCC3)cc12 [Compound 631]	PR (Homo sapiens, UniProt P06401)	75
CCN(CC(C)(C)C)c1ccc2[nH]c(=O)cc(C(F)(F)F)c2c1 [Compound 242]	PR (Homo sapiens, UniProt P06401)	95
CC1(C)OC(=O)Nc2ccc(C3=CCCCC3)cc21 [Compound 667]	PR (Homo sapiens, UniProt P06401)	89
CC(C)CN(CC(F)(F)F)c1cc2c(C(F)(F)F)cc(=O)[nH]c2cc1O [Compound 473]	PR (Homo sapiens, UniProt P06401)	55
N#Cc1cc(F)cc(-c2ccc3[nH]c(=O)cc(C(F)(F)F)c3c2)c1 [Compound 731]	PR (Homo sapiens, UniProt P06401)	89
CC1(C)OC(=S)Nc2ccc(C3=CC(O)CCC3)cc21 (racemic) [Compound 697]	PR (Homo sapiens, UniProt P06401)	58
O=c1cc(C(F)(F)F)c2cc(-c3cccc([N+](=O)[O-])c3)ccc2[nH]1 [Compound 727]	PR (Homo sapiens, UniProt P06401)	90

In the following, a different molecule is considered.
GET /values?readout=PR Antagonist CV-1 Cells Efficacy (%)&item= O=c1cc(C(F)(F)F)c2cc(-c3cccc(F)c3F)ccc2[nH]1 [Compound 725] 92

---

- testedSystem: human AR (Homo sapiens)
- Sequence (P10275 1-920): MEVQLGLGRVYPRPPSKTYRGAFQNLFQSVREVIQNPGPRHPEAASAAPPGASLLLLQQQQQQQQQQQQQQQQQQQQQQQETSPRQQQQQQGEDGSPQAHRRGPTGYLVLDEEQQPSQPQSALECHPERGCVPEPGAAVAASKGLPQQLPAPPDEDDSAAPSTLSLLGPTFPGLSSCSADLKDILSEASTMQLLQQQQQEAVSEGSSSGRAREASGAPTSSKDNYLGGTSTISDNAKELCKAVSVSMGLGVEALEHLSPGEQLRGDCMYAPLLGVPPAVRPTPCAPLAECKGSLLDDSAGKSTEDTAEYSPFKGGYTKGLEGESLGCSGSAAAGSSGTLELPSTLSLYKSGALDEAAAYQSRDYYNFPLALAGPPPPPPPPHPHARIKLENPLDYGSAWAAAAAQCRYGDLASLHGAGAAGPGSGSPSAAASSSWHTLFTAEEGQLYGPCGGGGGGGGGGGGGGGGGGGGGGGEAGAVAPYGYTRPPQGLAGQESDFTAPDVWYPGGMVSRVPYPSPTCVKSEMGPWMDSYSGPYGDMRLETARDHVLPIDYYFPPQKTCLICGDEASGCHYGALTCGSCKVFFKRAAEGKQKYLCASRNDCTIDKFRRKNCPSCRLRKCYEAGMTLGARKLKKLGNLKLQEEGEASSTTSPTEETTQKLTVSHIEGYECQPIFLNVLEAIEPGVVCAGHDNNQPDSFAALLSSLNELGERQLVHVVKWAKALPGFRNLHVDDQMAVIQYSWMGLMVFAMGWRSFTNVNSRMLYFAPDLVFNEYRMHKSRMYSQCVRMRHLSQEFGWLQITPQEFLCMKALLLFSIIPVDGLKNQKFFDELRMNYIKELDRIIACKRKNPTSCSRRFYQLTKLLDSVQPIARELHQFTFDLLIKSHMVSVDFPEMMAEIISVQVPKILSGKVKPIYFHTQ
- protocolDescription: Co-transfection assay, AR agonist activity (CV-1 cells, MTV-LUC reporter)
- protocolConditions: CV-1 cells; agonist potency EC50
Parameter pEC50: see the listing below.
Convention used: pEC50 is expressed as -log10 of the molar concentration.

compound	testedSystem	pEC50
CC(C)c1ccc2[nH]c(=O)cc(C(F)(F)F)c2c1	human AR (Homo sapiens)	5.55

GET /values?readout=pEC50&item= CCCC1CCC(CCC)N1c1ccc2[nH]c(=O)cc(C(F)(F)F)c2c1 (racemic) 7.26

Next compound up: `O=c1cc(C(F)(F)F)c2cc(N(CC(F)(F)F)CC(F)(F)F)ccc2o1` 9.22

Next compound up: CC1COC(C(F)(F)F)N1c1ccc2[nH]c(=O)cc(C(F)(F)F)c2c1 (racemic) 7.92

Next compound up: `O=c1cc(C(F)(F)F)c2cc(C3=CCCCCC3)ccc2[nH]1` 7.42

Next compound up: `O=c1cc(C(F)(F)F)c2cc(N(CC(F)(F)C(F)(F)F)CC(F)(F)C(F)(F)F)ccc2[nH]1` 7.39

Next compound up: `O=c1cc(C(F)(F)F)c2cc(N3CCCCC3)ccc2[nH]1` 6.84

---

- testedSystem: UniProt P10275
- protocolDescription: AR whole cell competitive binding assay (COS-1 cells, 3H-DHT)
- protocolConditions: 1 nM 3H-DHT, Cheng-Prusoff
assayEndpoint: pKi
Convention used: pKi is expressed as -log10 of the molar concentration.

Reference set, count: 5
molecule	pKi
O=c1cc(C(F)(F)F)c2cc(N3CCCC[C@@H]3[C@@H](O)C(F)(F)F)ccc2[nH]1	8.49
CSCC1CCCCN1c1ccc2[nH]c(=O)cc(C(F)(F)F)c2c1 (racemic)	7.55
CCN(CC(C)(C)C)c1ccc2[nH]c(=O)cc(C(F)(F)F)c2c1	7.49
CC1(C)CC(=O)Nc2ccc(N(CC(F)(F)F)CC(F)(F)F)cc21	7.80
CC1OC(=O)Nc2ccc(C3=CCCCC3)cc21 (racemic)	7.49

GET /values?readout=pKi&item= `O=c1cc(C(F)(F)F)c2cc(C3CCCCC3)ccc2[nH]1` 7.82

Next molecule up: `O=c1cc(C(F)(F)F)c2cc(C3=CCCCCC3)ccc2[nH]1` 7.01

Next molecule up: `Nc1cc2[nH]c(=O)cc(C(F)(F)F)c2cc1C1CCCCC1` 7.37

Next molecule up: `O=c1[nH]c2cc(NC3CCCC3)ccc2c(C(F)(F)F)c1F` 6.73
